Sourced from PubChem BioAssay (NCI)

Tested on: NCI-H522 lung
Experiment: NCI tumour cell line growth inhibition, 48 h
Quick rule for you: TGI at 10 µM or higher means yes, lower means no.

Answered examples (4):
Compound	Assigned Class
CN(C(=O)Cc1ccc(Cl)c(Cl)c1)[C@H]1CCCC[C@@H]1[N+]1(C)CCCC1	yes
CC(C)C(C/C=C1\CC(CO)(COC(=O)c2ccccc2)OC1=O)C(C)C (stereo unspecified)	yes
CC(=O)OCCOCNC(=S)N/N=C(\C)c1cnc2ccccc2n1	yes
c1ccc(-c2sc(-c3cccs3)cc2Cc2cccs2)cc1	yes

hey, is TGI for this one >= 10 µM? CCN1C(=S)N(CC)C2C1NC(=S)N2/N=C/C=C/c1ccccc1 (stereo unspecified)
no

hey, is TGI for this one >= 10 µM? `C=C1C(=O)O[C@H]2[C@H]1CC/C(COC(=O)NCc1ccc(Cn3c(=O)sn(CCCCl)c3=O)cc1)=C\CC[C@@]1(C)O[C@@H]21`
no

hey, is TGI for this one >= 10 µM? `COc1ccc2[nH]c(Cl)c(/C=C3/C(=O)Nc4cc(C)c(OC)cc43)c2c1`
no

hey, is TGI for this one >= 10 µM? `N=C(N=C(N)N)N1CCN(c2ccncc2)CC1`
yes

====

// reported TGI per item
System: SK-MEL-28 melanoma
Experiment: NCI tumour cell line growth inhibition, 48 h

Worked set:
Compound	Test System	TGI
NC(=O)c1cc(Br)cc(C2CCCCC2)c1O	SK-MEL-28 melanoma	27.3 µM
O=c1c(SSc2coc3cc(F)ccc3c2=O)coc2cc(F)ccc12	SK-MEL-28 melanoma	30.4 µM
COc1ccc2cc1Oc1ccc(cc1)C(Sc1ccccc1)CCOC(=O)CC2 (stereo unspecified)	SK-MEL-28 melanoma	> 100 µM

Could you now consider this next compound?
Please report the recorded TGI for `CN(C)C(N)=NC#N` .
> 100 µM

====

System: SW-620 colon
Form entry, call: pick from active, inactive

For `CCNC(=O)C#CC(=O)NCC` , which call appears in the assay record?
inactive

For `COc1cc(/C=C\[N+](=O)[O-])ccc1OCc1ccccc1` , which call appears in the assay record?
inactive

For `COc1cc2c3c(c1)c1cc(OC)c(OC)cc1c[n+]3CC2` , which call appears in the assay record?
inactive

For COc1cc(/C=C2\CC3C4CC=C5C[C@@H](OC(C)=O)CC[C@]5(C)C4CC[C@]3(C)C2=O)ccc1OCCCn1ccnc1 (stereo partly specified) , which call appears in the assay record?
inactive

For `O=C(c1ccc2ncc(-c3nc(NC4CC4)ncc3F)n2c1)N1CCOCC1` , which call appears in the assay record?
inactive

For `N#Cc1cnc2cc(OC[C@@H](O)CO)c(NC(=O)CC3CSSC3)cc2c1Nc1ccc(OCc2cccc(F)c2)c(Cl)c1` , which call appears in the assay record?
active

====

// reported TGI per item
Test system: RXF 393 renal
Assay: NCI tumour cell line growth inhibition, 48 h
Reply numerically in µM, unit not repeated.

Worked set:
Compound	Unit Descriptor	TGI
O=C(Nc1nc2ccccc2n1Cc1ccccc1)NC12CC3CC(CC(C3)C1)C2	µM	93.8
CC(C)=CC(=O)O[C@H]1C(=O)O[C@@H]2C[C@H]3[C@H](C)C(=O)C(O[C@@H]4O[C@H](CO)[C@@H](O)[C@H](O)[C@H]4O)=C[C@]3(C)[C@H]3[C@@H](O)[C@H](O)[C@]4(C(=O)O)OC[C@]32[C@@H]14	µM	73.1
COc1ccc(/C=C/c2nc(NCCCN(C)C)c3ccccc3n2)cc1	µM	12.1
[Se]=P(c1ccccc1)(c1ccccc1)c1ccc(C(c2ccccc2)=P(c2ccccc2)(c2ccccc2)c2ccccc2)cc1	µM	10.9
COC1CC2C=C(C)/C=C/C=C/C(=O)NC(c3ccccc3)C/C=C/CCC(O)CC(=O)C2=C1O (stereo not given)	µM	1.09
O=C1Sc2ccc(Br)cc2C(=O)Sc2ccccc21	µM	12.4

Please report the recorded TGI for `Cc1c2c(cc3c1[nH]c1ccccc13)C=NCC2` .
16.4

Please report the recorded TGI for O=C1C=C(Br)C(=O)C12CCc1ccccc12 (stereo not given) .
19.1

Please report the recorded TGI for `N#Cc1c(-c2ccccc2)cc(-c2ccc(Nc3nc(Nc4ccc(Cl)cc4)nc(Nc4ccc(Cl)cc4)n3)cc2)nc1N` .
4.72

Please report the recorded TGI for `Nc1ccc(S(=O)(=O)C23CC4CC(CC(C4)C2)C3)cc1` .
79.4

Please report the recorded TGI for `CN(C)c1nc(NC23CC4CC(CC(C4)C2)C3)nc(N(C)C)n1` .
17.7

Please report the recorded TGI for `Cc1nc2ccc(Nc3nc(NCCN4CCOCC4)nc(Nc4ccc(F)cc4)n3)cc2n1Cc1ccccc1` .
4.07

Please report the recorded TGI for `Cc1cc(CNC(=O)OCc2ccccc2)c(C)c2c1Oc1ccccc1O2` .
32.6

Please report the recorded TGI for C#CC1(O)C(COP(=O)(O)OC2CC(n3cc(F)c(=O)[nH]c3=O)OC2CO)OC(n2ccc(N)nc2=O)C1O (stereo not given) .
2.37

Please report the recorded TGI for `O=C(Nc1ccc(Cl)cc1)c1ccc(NC2=C(Cl)C(=O)N(Cc3ccccc3)C2=O)cc1` .
44.9
